Assay: Clearance in rat constant infusion model
Type: ADME, organism-based
Settings: in vivo, iv
// reported clearance per item

molecule	clearance [mL/min/kg]
O=C(N[C@H]1CN2CCC1CC2)c1ccc2ccoc2c1	58
O=C(N[C@H]1CN2CCC1CC2)c1cc2ccoc2cn1 [PHA-543613]	50
O=C(N[C@H]1CN2CCC1CC2)c1ccc2occc2c1	39
O=C(N[C@H]1CN2CCC1CC2)c1ccc(Cl)cc1 [PNU-282987]	30

====

Assay: Metabolic stability in Sprague-Dawley rat liver microsomes after 1 hr
Assay type: ADME, Microsome
Settings: read-out: Stability

molecule	output unit	remaining at 1 h
O=C(N[C@H]1CN2CCC1CC2)c1cc2cc[nH]c2cn1	%	29
O=C(N[C@H]1CN2CCC1CC2)c1ccc2sccc2c1	%	6
O=C(N[C@H]1CN2CCC1CC2)c1ccc(Cl)cc1 [PNU-282987]	%	96
O=C(N[C@H]1CN2CCC1CC2)c1cc2ccsc2cn1	%	7
O=C(N[C@H]1CN2CCC1CC2)c1ccc2cc[nH]c2c1	%	14
O=C(N[C@H]1CN2CCC1CC2)c1cc2occc2cn1	%	40
O=C(N[C@H]1CN2CCC1CC2)c1cc2sccc2cn1	%	7
O=C(N[C@H]1CN2CCC1CC2)c1ccc2ccsc2c1	%	29
O=C(N[C@H]1CN2CCC1CC2)c1ccc2ccoc2c1	%	69
O=C(N[C@H]1CN2CCC1CC2)c1cc2ccoc2cn1 [PHA-543613]	%	55
O=C(N[C@H]1CN2CCC1CC2)c1ccc2occc2c1	%	77

====

Test: Volume of distribution in rat at 5 mg/kg
Assay type: ADME, organism-based
Parameters: dose 5 mg/kg
Details: in vivo, read-out: Vdss
reported metric: Vd

smiles string	reported metric	experimental result
O=C(N[C@H]1CN2CCC1CC2)c1cc2ccoc2cn1	Vd	1.8 L/kg

====

Molecular target: hERG (Homo sapiens, UniProt Q12809)
Sequence (Q12809 whole entry): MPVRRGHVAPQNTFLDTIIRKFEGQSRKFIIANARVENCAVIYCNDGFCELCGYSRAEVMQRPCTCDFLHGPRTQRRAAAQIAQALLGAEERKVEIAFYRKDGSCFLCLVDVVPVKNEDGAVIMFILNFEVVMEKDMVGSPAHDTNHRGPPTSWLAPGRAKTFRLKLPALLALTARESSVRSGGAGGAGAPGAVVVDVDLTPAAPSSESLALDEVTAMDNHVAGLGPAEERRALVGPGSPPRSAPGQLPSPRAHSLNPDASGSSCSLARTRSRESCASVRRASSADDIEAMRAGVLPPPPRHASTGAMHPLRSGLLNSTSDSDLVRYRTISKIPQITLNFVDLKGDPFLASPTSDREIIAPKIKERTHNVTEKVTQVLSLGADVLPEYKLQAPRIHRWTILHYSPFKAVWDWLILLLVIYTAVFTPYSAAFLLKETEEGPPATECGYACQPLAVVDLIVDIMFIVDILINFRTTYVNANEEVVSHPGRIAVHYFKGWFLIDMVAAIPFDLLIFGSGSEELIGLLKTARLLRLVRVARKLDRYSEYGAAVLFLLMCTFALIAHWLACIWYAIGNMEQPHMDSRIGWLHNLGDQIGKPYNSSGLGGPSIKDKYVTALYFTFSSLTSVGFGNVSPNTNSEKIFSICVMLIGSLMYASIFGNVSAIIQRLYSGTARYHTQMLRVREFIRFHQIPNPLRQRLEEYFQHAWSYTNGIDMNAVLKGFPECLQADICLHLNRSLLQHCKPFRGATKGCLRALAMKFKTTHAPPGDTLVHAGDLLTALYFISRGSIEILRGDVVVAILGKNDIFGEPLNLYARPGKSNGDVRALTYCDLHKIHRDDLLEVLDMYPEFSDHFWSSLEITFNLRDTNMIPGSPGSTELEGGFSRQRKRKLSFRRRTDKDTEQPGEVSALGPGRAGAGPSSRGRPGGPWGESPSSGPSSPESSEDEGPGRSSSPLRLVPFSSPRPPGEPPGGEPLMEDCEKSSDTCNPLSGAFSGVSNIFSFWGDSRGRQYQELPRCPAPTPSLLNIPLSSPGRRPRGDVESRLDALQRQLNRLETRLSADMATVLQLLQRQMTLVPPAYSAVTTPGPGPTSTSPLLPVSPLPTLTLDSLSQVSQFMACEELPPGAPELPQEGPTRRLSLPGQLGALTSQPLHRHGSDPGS
Test: Inhibition of hERG expressed in HEK293 cells at 2 uM by patch clamp assay
Assay type: toxicity, cell-based
Details: HEK293 cells that express hERG
// reported inhibition at 2 µM per item

compound	output unit	inhibition at 2 µM
O=C(N[C@H]1CN2CCC1CC2)c1ccc2ccoc2c1	%	2
O=C(N[C@H]1CN2CCC1CC2)c1ccc2ccsc2c1	%	13
O=C(N[C@H]1CN2CCC1CC2)c1ccc2occc2c1	%	2
O=C(N[C@H]1CN2CCC1CC2)c1ccc(Cl)cc1 [PNU-282987]	%	11

====

Target: MAO-A (Homo sapiens, UniProt P21397)
Sequence (P21397 whole entry): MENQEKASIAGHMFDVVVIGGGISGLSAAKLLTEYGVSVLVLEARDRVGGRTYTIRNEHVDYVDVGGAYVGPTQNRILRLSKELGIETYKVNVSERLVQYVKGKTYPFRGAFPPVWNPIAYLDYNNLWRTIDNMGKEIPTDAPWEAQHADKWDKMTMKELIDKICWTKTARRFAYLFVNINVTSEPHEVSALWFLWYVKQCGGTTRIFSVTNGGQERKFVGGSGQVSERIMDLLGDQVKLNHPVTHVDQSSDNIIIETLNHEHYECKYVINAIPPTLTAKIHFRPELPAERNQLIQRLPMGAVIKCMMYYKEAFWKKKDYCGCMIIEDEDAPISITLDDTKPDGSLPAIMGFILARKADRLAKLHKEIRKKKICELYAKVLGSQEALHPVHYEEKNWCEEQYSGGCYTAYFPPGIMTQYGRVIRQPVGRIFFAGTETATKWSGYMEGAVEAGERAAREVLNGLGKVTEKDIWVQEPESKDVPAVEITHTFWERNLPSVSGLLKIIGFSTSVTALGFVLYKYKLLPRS
Test: Inhibition of MAO-A at 1 uM

compound	inhibition at 1 µM
O=C(N[C@H]1CN2CCC1CC2)c1cc2ccoc2cn1 [PHA-543613]	< 10%

====

Assay: Half life in Sprague-Dawley rat liver microsome
Type: ADME
Details: liver microsomes
reported metric: half-life

smiles string	reported metric	experimental result
O=C(N[C@H]1CN2CCC1CC2)c1ccc2occc2c1	half-life	> 2 h
O=C(N[C@H]1CN2CCC1CC2)c1cc2ccoc2cn1	half-life	0.667 h
O=C(N[C@H]1CN2CCC1CC2)c1ccc(Cl)cc1	half-life	> 2 h

====

Molecular target: Neuronal acetylcholine receptor subunit alpha-7 (Rattus norvegicus)
Experiment: Displacement of [3H]MLA from alpha-7 nAChR in Sprague-Dawley rat brain homogenates
Cut-off 20 nM on Ki: below means True, at or above means False.

molecule	class name
O=C(N[C@H]1CN2CCC1CC2)c1ccc2sccc2c1	True
O=C(N[C@H]1CN2CCC1CC2)c1cc2occc2cn1	False
O=C(N[C@H]1CN2CCC1CC2)c1ccc2occc2c1	True
O=C(N[C@H]1CN2CCC1CC2)c1ccc2ccoc2c1	True
O=C(N[C@H]1CN2CCC1CC2)c1ccc2ccsc2c1	True
O=C(N[C@H]1CN2CCC1CC2)c1ccc2c(c1)CCO2	True
O=C(N[C@H]1CN2CCC1CC2)c1cc2ccsc2cn1	True
O=C(N[C@H]1CN2CCC1CC2)c1ccc(Cl)cc1 [PNU-282987]	False
O=C(N[C@H]1CN2CCC1CC2)c1ccc2c(c1)CCN2	False
O=C(N[C@H]1CN2CCC1CC2)c1cc2ccoc2cn1 [PHA-543613]	True

====

Target: L-type calcium channel, verapamil site (Homo sapiens, UniProt O60840+Q01668+Q13698+Q13936)
Assay: Inhibition of verapamil site of Calcium channel L type at 1 uM
Type: protein assay

molecule	inhibition at 1 µM
O=C(N[C@H]1CN2CCC1CC2)c1cc2ccoc2cn1 [PHA-543613]	< 10%

====

Molecular target: Serotonin 3 (5-HT3) receptor
Experiment: Activity at 5HT3 receptor expressed in SHEP1 cells by FLIPR assay
Assay type: functional, cell-based, Homo sapiens

smiles string	Ki
O=C(N[C@H]1CN2CCC1CC2)c1ccc2ccsc2c1	188 nM
O=C(N[C@H]1CN2CCC1CC2)c1ccc2occc2c1	580 nM
O=C(N[C@H]1CN2CCC1CC2)c1cc2ccoc2cn1	628 nM
O=C(N[C@H]1CN2CCC1CC2)c1ccc(Cl)cc1	4540 nM
O=C(N[C@H]1CN2CCC1CC2)c1ccc2ccoc2c1	962 nM

====

Target: Cytochrome P450 2D6 (Homo sapiens)
pIC50: −log10 of the molar value.
// reported pIC50 per item

smiles string	pIC50
O=C(N[C@H]1CN2CCC1CC2)c1cc2ccoc2cn1	< 5.00
O=C(N[C@H]1CN2CCC1CC2)c1ccc(Cl)cc1	< 5.52
O=C(N[C@H]1CN2CCC1CC2)c1ccc2occc2c1	5.44
O=C(N[C@H]1CN2CCC1CC2)c1ccc2ccoc2c1	< 5.00

====

Assay: Clearance in rat at 5 mg/kg
Format: ADME, organism-based
Set-up: dose 5 mg/kg
Conditions: in vivo

compound	output unit	clearance
O=C(N[C@H]1CN2CCC1CC2)c1cc2ccoc2cn1 [PHA-543613]	mL/min/kg	33.3

====

// reported inhibition at 20 µM per item
Target: UniProt:Q12809
Assay: Inhibition of hERG expressed in HEK293 cells at 20 uM by patch clamp assay
Format: toxicity, cell-based
Details: HEK293 cells that express hERG

smiles string	output unit	inhibition at 20 µM
O=C(N[C@H]1CN2CCC1CC2)c1cc2ccoc2cn1	%	29
O=C(N[C@H]1CN2CCC1CC2)c1ccc2occc2c1	%	33
O=C(N[C@H]1CN2CCC1CC2)c1ccc2ccsc2c1	%	65
O=C(N[C@H]1CN2CCC1CC2)c1ccc(Cl)cc1	%	57
O=C(N[C@H]1CN2CCC1CC2)c1ccc2ccoc2c1	%	29

====

Assay: Oral bioavailability in rat constant infusion model
Assay type: ADME, organism-based
Conditions: in vivo
// reported bioavailability per item

smiles string	bioavailability, %
O=C(N[C@H]1CN2CCC1CC2)c1ccc2ccoc2c1	76
O=C(N[C@H]1CN2CCC1CC2)c1cc2ccoc2cn1	63
O=C(N[C@H]1CN2CCC1CC2)c1ccc(Cl)cc1	74
O=C(N[C@H]1CN2CCC1CC2)c1ccc2occc2c1	88

====

Biological target: Serotonin 3 (5-HT3) receptor
Assay: Binding affinity to 5HT3 receptor
Type: protein-complex assay, Homo sapiens
Cut-off 500 nM on Ki: below means Fulfilled, at or above means Not fulfilled.

molecule	class name
O=C(N[C@H]1CN2CCC1CC2)c1ccc(Cl)cc1 [PNU-282987]	Not fulfilled
O=C(N[C@H]1CN2CCC1CC2)c1ccc2occc2c1	Not fulfilled
O=C(N[C@H]1CN2CCC1CC2)c1ccc2ccsc2c1	Fulfilled
O=C(N[C@H]1CN2CCC1CC2)c1ccc2ccoc2c1	Fulfilled

====

// reported pIC50 per item
Molecular target: Neuronal acetylcholine receptor; alpha3/beta4 (Homo sapiens, UniProt P30926+P32297)
Sequence (P30926 whole entry): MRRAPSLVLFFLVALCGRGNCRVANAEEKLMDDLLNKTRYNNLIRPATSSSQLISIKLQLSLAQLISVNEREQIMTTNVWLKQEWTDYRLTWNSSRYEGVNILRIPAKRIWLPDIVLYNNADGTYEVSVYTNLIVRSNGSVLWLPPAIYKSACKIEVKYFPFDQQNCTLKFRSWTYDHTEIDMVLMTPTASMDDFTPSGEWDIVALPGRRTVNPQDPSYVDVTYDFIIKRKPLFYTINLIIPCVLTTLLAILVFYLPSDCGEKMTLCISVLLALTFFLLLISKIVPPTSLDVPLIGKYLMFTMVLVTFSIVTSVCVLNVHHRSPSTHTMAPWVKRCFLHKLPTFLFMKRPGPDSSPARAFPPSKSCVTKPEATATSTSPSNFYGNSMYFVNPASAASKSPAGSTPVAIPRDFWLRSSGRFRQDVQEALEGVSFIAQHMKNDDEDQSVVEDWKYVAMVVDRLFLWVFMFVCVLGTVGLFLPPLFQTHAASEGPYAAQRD
Sequence (P32297 whole entry): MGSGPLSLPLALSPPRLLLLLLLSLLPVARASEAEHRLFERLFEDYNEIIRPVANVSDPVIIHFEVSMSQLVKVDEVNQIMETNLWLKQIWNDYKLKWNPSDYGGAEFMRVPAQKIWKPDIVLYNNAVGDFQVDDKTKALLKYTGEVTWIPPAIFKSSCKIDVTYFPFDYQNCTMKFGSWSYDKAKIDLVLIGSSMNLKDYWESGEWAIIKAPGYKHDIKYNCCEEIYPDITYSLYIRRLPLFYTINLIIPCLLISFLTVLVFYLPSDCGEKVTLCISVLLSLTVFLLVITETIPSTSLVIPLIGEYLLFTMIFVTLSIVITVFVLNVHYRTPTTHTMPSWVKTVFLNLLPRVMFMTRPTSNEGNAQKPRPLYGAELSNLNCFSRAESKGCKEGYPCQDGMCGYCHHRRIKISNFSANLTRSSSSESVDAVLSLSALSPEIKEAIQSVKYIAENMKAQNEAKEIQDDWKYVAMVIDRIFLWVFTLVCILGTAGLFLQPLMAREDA
Test: Inhibition of alpha-3-beta-4 nAChR expressed in SHSY5Y cells by FLIPR assay
pIC50: −log10 of the molar value.

smiles string	inequality sign	pIC50
O=C(N[C@H]1CN2CCC1CC2)c1ccc2ccoc2c1	=	4.09
O=C(N[C@H]1CN2CCC1CC2)c1ccc2occc2c1	<	4.00
O=C(N[C@H]1CN2CCC1CC2)c1ccc2ccsc2c1	=	4.42
O=C(N[C@H]1CN2CCC1CC2)c1ccc(Cl)cc1	<	4.22
O=C(N[C@H]1CN2CCC1CC2)c1cc2ccoc2cn1	<	4.00

====

Assay: Oral bioavailability in rat at 5 mg/kg
Format: ADME, organism-based
Settings: in vivo
reported metric: bioavailability

smiles string	reported metric	experimental result
O=C(N[C@H]1CN2CCC1CC2)c1cc2ccoc2cn1	bioavailability	65%

====

Experiment: Ratio of drug level in brain against plasma in rat by MBUA method after 5 min
Format: ADME, organism-based
Settings: brain and plasma
reported metric: Kp at 5 min

compound	experimental result
O=C(N[C@H]1CN2CCC1CC2)c1cc2ccoc2cn1 [PHA-543613]	1.5

====

Target: Acetylcholine receptor; alpha1/beta1/delta/gamma (Homo sapiens, UniProt P02708+P07510+P11230+Q07001)
Sequence (P02708 whole entry): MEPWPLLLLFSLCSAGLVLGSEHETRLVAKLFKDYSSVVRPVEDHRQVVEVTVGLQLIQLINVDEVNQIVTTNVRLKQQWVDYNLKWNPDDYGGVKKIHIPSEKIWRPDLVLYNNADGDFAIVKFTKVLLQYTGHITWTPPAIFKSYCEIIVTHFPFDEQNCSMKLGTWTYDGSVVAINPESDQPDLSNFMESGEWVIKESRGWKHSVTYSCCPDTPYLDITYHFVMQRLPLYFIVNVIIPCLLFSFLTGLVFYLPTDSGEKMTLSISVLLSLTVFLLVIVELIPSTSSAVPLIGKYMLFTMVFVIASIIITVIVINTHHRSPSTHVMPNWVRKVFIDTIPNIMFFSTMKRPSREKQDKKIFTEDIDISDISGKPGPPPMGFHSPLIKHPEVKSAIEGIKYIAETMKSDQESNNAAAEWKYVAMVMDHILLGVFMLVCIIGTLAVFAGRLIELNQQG
Sequence (P07510 whole entry): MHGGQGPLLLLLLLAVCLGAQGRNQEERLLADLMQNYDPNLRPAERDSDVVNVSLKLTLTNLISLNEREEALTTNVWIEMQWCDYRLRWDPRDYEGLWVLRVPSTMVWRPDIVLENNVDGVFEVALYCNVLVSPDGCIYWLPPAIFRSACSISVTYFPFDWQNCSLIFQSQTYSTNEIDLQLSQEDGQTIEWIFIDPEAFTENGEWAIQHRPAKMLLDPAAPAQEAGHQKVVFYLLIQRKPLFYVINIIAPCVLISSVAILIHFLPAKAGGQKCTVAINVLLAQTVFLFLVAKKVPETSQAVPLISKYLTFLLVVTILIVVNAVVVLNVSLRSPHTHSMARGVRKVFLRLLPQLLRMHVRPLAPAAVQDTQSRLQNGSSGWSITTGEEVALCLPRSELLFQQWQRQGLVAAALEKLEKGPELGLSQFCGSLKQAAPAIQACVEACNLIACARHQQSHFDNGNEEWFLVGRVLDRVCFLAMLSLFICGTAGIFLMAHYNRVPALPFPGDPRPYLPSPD
Sequence (P11230 whole entry): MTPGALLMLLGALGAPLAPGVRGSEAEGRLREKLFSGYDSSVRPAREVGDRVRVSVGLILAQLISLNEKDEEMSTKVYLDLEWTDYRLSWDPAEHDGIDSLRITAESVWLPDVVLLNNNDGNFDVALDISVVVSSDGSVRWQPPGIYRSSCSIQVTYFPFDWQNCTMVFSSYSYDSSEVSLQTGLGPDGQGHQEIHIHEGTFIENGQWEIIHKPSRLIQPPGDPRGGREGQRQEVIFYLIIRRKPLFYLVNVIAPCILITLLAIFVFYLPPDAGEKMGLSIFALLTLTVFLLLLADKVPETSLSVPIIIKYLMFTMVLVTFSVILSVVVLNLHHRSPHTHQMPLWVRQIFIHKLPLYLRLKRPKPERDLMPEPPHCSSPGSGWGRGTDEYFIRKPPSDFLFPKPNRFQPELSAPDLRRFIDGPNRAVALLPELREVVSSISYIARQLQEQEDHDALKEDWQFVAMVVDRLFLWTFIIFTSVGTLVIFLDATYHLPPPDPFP
Sequence (Q07001 whole entry): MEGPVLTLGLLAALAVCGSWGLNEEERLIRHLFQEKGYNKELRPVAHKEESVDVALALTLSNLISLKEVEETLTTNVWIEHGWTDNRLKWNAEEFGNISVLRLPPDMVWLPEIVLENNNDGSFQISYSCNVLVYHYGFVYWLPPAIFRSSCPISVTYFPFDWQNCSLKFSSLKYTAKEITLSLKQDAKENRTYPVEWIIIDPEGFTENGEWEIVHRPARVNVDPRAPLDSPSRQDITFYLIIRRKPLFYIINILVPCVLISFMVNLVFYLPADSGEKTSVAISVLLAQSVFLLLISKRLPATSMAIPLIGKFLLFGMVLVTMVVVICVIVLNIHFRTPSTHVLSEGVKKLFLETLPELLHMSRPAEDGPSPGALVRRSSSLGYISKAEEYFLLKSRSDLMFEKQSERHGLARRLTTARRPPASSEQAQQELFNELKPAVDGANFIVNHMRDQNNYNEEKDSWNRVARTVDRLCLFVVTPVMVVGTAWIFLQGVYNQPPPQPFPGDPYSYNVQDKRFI
Assay: Inhibition of alpha-1-beta-1-gamma-delta nAChR expressed in TE671cells by FLIPR assay
Format: functional, cell-based, TE-671
// reported IC50 per item

compound	IC50
O=C(N[C@H]1CN2CCC1CC2)c1cc2ccoc2cn1 [PHA-543613]	> 100 µM
O=C(N[C@H]1CN2CCC1CC2)c1ccc2ccsc2c1	> 100 µM
O=C(N[C@H]1CN2CCC1CC2)c1ccc2ccoc2c1	> 100 µM
O=C(N[C@H]1CN2CCC1CC2)c1ccc2occc2c1	> 100 µM
O=C(N[C@H]1CN2CCC1CC2)c1ccc(Cl)cc1 [PNU-282987]	> 60 µM
